Molecular target: human C3a receptor (C3aR) (Homo sapiens)
Construct: expressed in transfected cells
Sequence (Q16581 whole entry): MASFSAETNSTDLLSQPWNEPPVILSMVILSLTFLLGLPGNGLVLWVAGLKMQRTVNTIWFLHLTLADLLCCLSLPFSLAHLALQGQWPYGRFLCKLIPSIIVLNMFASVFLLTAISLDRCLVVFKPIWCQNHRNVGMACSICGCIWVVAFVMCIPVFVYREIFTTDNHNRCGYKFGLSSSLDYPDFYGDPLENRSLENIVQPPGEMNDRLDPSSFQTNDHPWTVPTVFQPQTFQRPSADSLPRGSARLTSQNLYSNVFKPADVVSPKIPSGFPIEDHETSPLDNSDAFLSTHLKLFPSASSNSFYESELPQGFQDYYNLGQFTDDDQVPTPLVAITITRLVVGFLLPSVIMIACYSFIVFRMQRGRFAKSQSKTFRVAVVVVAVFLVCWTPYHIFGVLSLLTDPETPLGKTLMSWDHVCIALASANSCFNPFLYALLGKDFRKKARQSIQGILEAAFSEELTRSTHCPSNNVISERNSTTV
Test: Inhibition of human [125I]-C3a binding to human C3a receptor (SPA, membranes of HEK293 cells expressing recombinant C3aR)
Details: 0.1 nM [125I]-C3a, 3 hours at room temperature; Table 1
Catalogue of IC50 readings, one per entry.

Q) GET /values?readout=IC50&item= Cc1ccc(C(=O)N[C@@H](CCCNC(=N)N)C(=O)O)c(=O)n1Cc1ccccc1
A) 50 to 500 nM

Q) GET /values?readout=IC50&item= N=C(N)NCCC[C@H](NC(=O)c1cccn(-c2ccc3ccccc3c2)c1=O)C(=O)O
A) 50 to 500 nM

Q) GET /values?readout=IC50&item= N=C(N)NCCC[C@H](NC(=O)c1cccn(Cc2ccccc2Cc2ccccc2)c1=O)C(=O)O
A) < 50 nM

Q) GET /values?readout=IC50&item= N=C(N)NCCC[C@H](NC(=O)c1cccn(Cc2cccc(Cc3ccccc3)c2)c1=O)C(=O)O
A) 50 to 500 nM
